Assay overview: Counterscreen for APE1 Inhibitors: Fluorescent Dye Displacement Validation Assay (AID 1707)
Test parameters: fluorescent dye displacement from DNA; series mostly up to 57.1 µM
Results filed as inconclusive are left out. Active and inactive are the calls of the source. The call rests on the fitted dose curve; in most records, active means well fitted inhibition curve with a large enough effect; inconclusive means small, poorly fitted or top-dose-only effect; inactive means no such curve, though single readings can be large or run the other way.
Measurement label: outcome

Take a look at these entries with their results.
CC(C)(C(=O)O)c1ccc(C(O)CCCN2CCC(C(O)(c3ccccc3)c3ccccc3)CC2)cc1 (configuration not stated) | inactive
NC1CCN(c2cccc(Cl)n2)CC1 | inactive
CNCCCC1c2ccccc2C=Cc2ccccc21 | inactive
CN(C)CCCN1c2ccccc2CCc2ccccc21 | inactive
CNCCC(Oc1ccc(C(F)(F)F)cc1)c1ccccc1 (configuration not stated) | inactive

Could I get outcome for every one of these entries?
1. OCc1cc(C(O)CNCCCCCCOCCCCc2ccccc2)ccc1O (configuration not stated)
2. COc1ccc(Cl)cc1C(=O)NCCc1ccc(S(=O)(=O)NC(=O)NC2CCCCC2)cc1
3. OCCN1CCN(CCCN2c3ccccc3Sc3ccc(Cl)cc32)CC1
4. CN1CCN(C2Cc3ccccc3Sc3ccc(Cl)cc32)CC1 (configuration not stated)
5. CN(C)CC[C@@H](c1ccc(Cl)cc1)c1ccccn1
6. Nc1cc(=O)[nH]c(N)n1
7. CC(C)C(=O)c1c(C(C)C)nn2ccccc12

Output:
1: inactive; 2: inactive; 3: inactive; 4: inactive; 5: inactive; 6: inactive; 7: inactive

---

System: 7G8
Assay overview: qHTS profiling for inhibitors of Plasmodium falciparum proliferation (AID 504749); further: nearly all actives have a fitted effect of over 60% in size
Test parameters: P. falciparum in erythrocytes, SYBR Green DNA, 72 h; series mostly up to 28.7 µM
Results filed as inconclusive are left out. The source made the active and inactive calls. The call rests on the fitted dose curve; in most records, active means well fitted inhibition curve with a large enough effect; inconclusive means small, poorly fitted or top-dose-only effect; inactive means flat fitted curve, though single readings scatter.
Respond with a class label; see active, inactive

Known results for compounds:
O=C1c2c(O)cccc2Cc2cccc(O)c21 | inactive
CCOC(CN1CCN(CC(C)C(=O)c2ccccc2)CC1)c1ccccc1 (configuration not stated) | active
CN1CCC[C@@H]1Cc1c[nH]c2ccc(CCS(=O)(=O)c3ccccc3)cc12 | active

Task: Give the logged outcome of this assay for the following compound: COc1cc2[nH]c(=O)[nH]c(=O)c2cc1OC
Output: inactive

Task: Give the logged outcome of this assay for the following compound: CC1(C)OC(=O)NC1=O
Output: inactive

Task: Give the logged outcome of this assay for the following compound: Cc1cccc(Nc2cc(Cl)nc(SCC(=O)O)n2)c1C
Output: inactive

Task: Give the logged outcome of this assay for the following compound: CCN(CC)CCNC(=O)c1cc(Cl)c(N)cc1OC
Output: inactive

Task: Give the logged outcome of this assay for the following compound: O=c1cc(CO)occ1O
Output: inactive

---

Test system: TAB113
Assay overview: qHTS profiling for inhibitors of Plasmodium falciparum proliferation (AID 504749); further: nearly all actives have a fitted effect of over 60% in size
Test parameters: P. falciparum in erythrocytes, SYBR Green DNA, 72 h; series mostly up to 28.7 µM
Inconclusive results are not listed. The source made the active and inactive calls. Calls come from the whole dose curve; as a rule, active = well fitted inhibition curve with a large enough effect; inconclusive = small, poorly fitted or top-dose-only effect; inactive = flat fitted curve, though single readings scatter.
Respond with a class label; see active, inactive

Known results for molecules:
Cc1cccc(C)c1NC(=O)CN(CC(=O)O)CC(=O)O | inactive
N[C@@H](CSCCCO)C(=O)O | inactive
CC(CN1c2ccccc2Sc2ccccc21)N(C)C (centres undefined) | inactive

Task: Give the logged outcome of this assay for the following molecule: CC(C)(C)C(=O)C(Oc1ccc(Cl)cc1)n1ccnc1 (centres undefined)
Output: active

Task: Give the logged outcome of this assay for the following molecule: Nc1ccc(S(=O)(=O)Nc2nccs2)cc1
Output: inactive

Task: Give the logged outcome of this assay for the following molecule: O=Cc1ccccc1C=O
Output: inactive

Task: Give the logged outcome of this assay for the following molecule: CCN(CC)CCSC(=O)C(c1ccccc1)c1ccccc1
Output: inactive

Task: Give the logged outcome of this assay for the following molecule: C[C@](N)(Cc1ccc(O)cc1)C(=O)O
Output: inactive

Task: Give the logged outcome of this assay for the following molecule: O=S(=O)(O)c1cc(I)c(O)c2ncccc12
Output: inactive

Task: Give the logged outcome of this assay for the following molecule: CC12CCC(CC1)C(C)(C)O2
Output: inactive

Task: Give the logged outcome of this assay for the following molecule: O=S(=O)(O)NC1CCCCC1
Output: inactive

Task: Give the logged outcome of this assay for the following molecule: NC(=O)NC(=O)Cc1ccccc1
Output: inactive
